Below, each entry is listed alongside its reported melting point.
quantity kind: melting point

{"columns": ["smiles input", "quantity kind", "recorded result"],
 "data": [
  ["CCOc1ccc2c(CBr)c(C(C)=O)oc2c1", "melting point", "98 to 105 °C"],
  ["COc1cc(OC)c2c(C)c(C(C)=O)oc2c1", "melting point", "115 to 118 °C"],
  ["COc1ccc2oc(C(C)=O)c(CBr)c2c1", "melting point", "103 to 106 °C"],
  ["COc1ccc2oc(C(C)=O)c(C)c2c1", "melting point", "93 to 96 °C"],
  ["CCOc1ccc2c(C)c(C(C)=O)oc2c1", "melting point", "86 to 90 °C"],
  ["COc1cc2oc(C(C)=O)c(CBr)c2c(OC)c1Br", "melting point", "165 to 171 °C"],
  ["CCOc1cccc2oc(C(C)=O)c(C)c12", "melting point", "60 to 65 °C"]
]}
